All values here come from ChEMBL document CHEMBL3217552.

I'd be grateful if you could share measured MIC80 for these entries.
System: Nakaseomyces glabratus
Experiment Summary: Antifungal activity against Candida glabrata after 24 hrs by serial dilution method
Format: functional

Below are some compounds; for each one, tell me its MIC80.
1. COc1ccc2cc(CN[C@H]3CCC[C@@H](C(=O)Nc4ccc5nc(NC(=O)C6CCCC6)sc5c4)C3)ccc2c1 (relative stereo)
2. O=C(Nc1ccc2nc(NC(=O)[C@@H]3CCC[C@H](NCc4ccc5ccccc5n4)C3)sc2c1)C1CCCC1 (relative stereo)
3. O=C(Nc1nc2ccc(NC(=O)[C@@H]3CCC[C@H](NCc4ccc5ccccc5c4Br)C3)cc2s1)C1CCCC1 (relative stereo)
4. O=C(Nc1ccc2nc(NC(=O)[C@@H]3CCC[C@H](NCc4ccc5ccccc5c4)C3)sc2c1)C1CCCC1 (relative stereo)
5. COc1ccc(CN[C@H]2CCC[C@@H](C(=O)Nc3ccc4nc(NC(=O)C5CCCC5)sc4c3)C2)c2ccccc12 (relative stereo)
6. O=C(Nc1ccc2nc(NC(=O)[C@@H]3CCC[C@H](NCc4ccc5ncccc5c4)C3)sc2c1)C1CCCC1 (relative stereo)

Result:
1: > 64 µg/mL; 2: > 64 µg/mL; 3: > 64 µg/mL; 4: 16 µg/mL; 5: > 64 µg/mL; 6: > 64 µg/mL

* * *

Test system: Nakaseomyces glabratus
Experiment Summary: Antifungal activity against Candida glabrata after 24 hrs by serial dilution method
Format: functional
Endpoint: MIC80

[[record]]
compound = "OC(Cn1cncn1)(Cn1cncn1)c1ccc(F)cc1F"
result = "2 µg/mL"


For each of the items listed, what is its MIC80?
1. O=C(Nc1nc2ccc(NC(=O)[C@@H]3CCC[C@H](NCC4CNc5ccccc5C4)C3)cc2s1)C1CCCC1 (relative stereo)
2. O=C(Nc1nc2ccc(NC(=O)[C@@H]3CCC[C@H](NCc4cc5ccccc5nc4Cl)C3)cc2s1)C1CCCC1 (relative stereo)
3. O=C(Nc1ccc2nc(NC(=O)[C@@H]3CCC[C@H](NCc4cnc5ccccc5c4)C3)sc2c1)C1CCCC1 (relative stereo)
4. O=C(Nc1nc(-c2ccc(NC(=O)[C@H]3CCC[C@@H](NCc4ccc5ccccc5c4)C3)cc2)cs1)C1CCCC1 (relative stereo)
5. O=C(Nc1nc2ccc(NC(=O)[C@@H]3CCC[C@H](NCc4ccc5ccccc5n4)C3)cc2o1)C1CCCC1 (relative stereo)
6. CCOc1ccc2ccccc2c1CN[C@H]1CCC[C@@H](C(=O)Nc2ccc3nc(NC(=O)C4CCCC4)sc3c2)C1 (relative stereo)

Result:
> 64 µg/mL
> 64 µg/mL
> 64 µg/mL
> 64 µg/mL
> 64 µg/mL
> 64 µg/mL

* * *

Test system: Nannizzia gypsea
Experiment Summary: Antifungal activity against Microsporum gypseum after 72 hrs by serial dilution method
Assay type: functional
So basically, if MIC80 comes in under 60 µg/mL it's MET, and if it's 60 µg/mL or more it's NOT MET.

Some solved cases for reference:
[[record]]
molecule = "O=C(Nc1ccc2nc(NC(=O)[C@@H]3CCC[C@H](NCc4cnc5ccccc5c4)C3)sc2c1)C1CCCC1 (relative stereo)"
category_label = "NOT MET"

[[record]]
molecule = "O=C(Nc1nc2ccc(NC(=O)[C@@H]3CCC[C@H](NCc4ccc5ccccc5n4)C3)cc2o1)C1CCCC1 (relative stereo)"
category_label = "MET"

[[record]]
molecule = "COc1ccc2ccccc2c1CN[C@H]1CCC[C@@H](C(=O)Nc2ccc3nc(NC(=O)C4CCCC4)sc3c2)C1 (relative stereo)"
category_label = "NOT MET"

[[record]]
molecule = "O=C(Nc1nc2ccc(NC(=O)[C@@H]3CCC[C@H](NCc4cccc5ccccc45)C3)cc2s1)C1CCCC1 (relative stereo)"
category_label = "NOT MET"

[[record]]
molecule = "O=C(Nc1nc(-c2ccc(NC(=O)[C@H]3CCC[C@@H](NCc4ccc5ccccc5c4)C3)cc2)cs1)C1CCCC1 (relative stereo)"
category_label = "MET"

[[record]]
molecule = "O=C(Nc1ccc2nc(NC(=O)[C@@H]3CCC[C@H](NCc4ccnc5ccccc45)C3)sc2c1)C1CCCC1 (relative stereo)"
category_label = "NOT MET"

[[record]]
molecule = "O=C(Nc1nc2ccc(NC(=O)[C@@H]3CCC[C@H](NCc4ccc5ccccc5c4)C3)cc2o1)C1CCCC1 (relative stereo)"
category_label = "MET"

[[record]]
molecule = "O=C(Nc1nc2ccc(NC(=O)[C@@H]3CCC[C@H](NCC4CCc5ncccc5C4)C3)cc2s1)C1CCCC1 (relative stereo)"
category_label = "NOT MET"

[[record]]
molecule = "O=C(Nc1ccc2nc(NC(=O)[C@@H]3CCC[C@H](NCc4ccc5ccccc5n4)C3)sc2c1)C1CCCC1 (relative stereo)"
category_label = "NOT MET"

[[record]]
molecule = "O=C(Nc1nc2ccc(NC(=O)[C@@H]3CCC[C@H](NCc4ccc5ncccc5c4)C3)cc2s1)C1CCCC1 (relative stereo)"
category_label = "NOT MET"


Query: For this molecule, is MIC80 lower than 60 µg/mL? O=C(Nc1nc2ccc(NC(=O)[C@@H]3CCC[C@H](NCc4ccc5ccccc5c4)C3)cc2s1)C1CCCC1 (racemic)
Result: NOT MET

Query: Answer whether the molecule O=C(Nc1nc2ccc(NC(=O)[C@@H]3CCC[C@H](NCc4cc5ccccc5nc4Cl)C3)cc2s1)C1CCCC1 (relative stereo) has MIC80 strictly less than 60 µg/mL
Result: NOT MET

Query: Would you kindly verify if MIC80 of O=C(Nc1nc2ccc(NC(=O)[C@@H]3CCC[C@H](NCc4cccc5cccnc45)C3)cc2s1)C1CCCC1 (relative stereo) is strictly less than 60 µg/mL?
Result: NOT MET

* * *

Test system: Nakaseomyces glabratus
Experiment Summary: Antifungal activity against Candida glabrata after 24 hrs by serial dilution method
Type: functional
Endpoint: MIC80

# count of solved cases: 6
[[record]]
compound = "O=C(Nc1nc2ccc(NC(=O)[C@@H]3CCC[C@H](NCc4cccc5ccccc45)C3)cc2s1)C1CCCC1 (relative stereo)"
assay_system = "Nakaseomyces glabratus"
endpoint = "MIC80"
result = "> 64 µg/mL"

[[record]]
compound = "O=C(Nc1nc2ccc(NC(=O)[C@@H]3CCC[C@H](NCc4cnc5ccccc5c4)C3)cc2s1)C1CCCC1"
assay_system = "Nakaseomyces glabratus"
endpoint = "MIC80"
result = "> 64 µg/mL"

[[record]]
compound = "O=C(Nc1ccc2nc(NC(=O)[C@@H]3CCC[C@H](NCc4ccnc5ccccc45)C3)sc2c1)C1CCCC1 (relative stereo)"
assay_system = "Nakaseomyces glabratus"
endpoint = "MIC80"
result = "16 µg/mL"

[[record]]
compound = "O=C(Nc1nc2ccc(NC(=O)[C@@H]3CCC[C@H](NCc4ccnc5ccccc45)C3)cc2s1)C1CCCC1 (relative stereo)"
assay_system = "Nakaseomyces glabratus"
endpoint = "MIC80"
result = "> 64 µg/mL"

[[record]]
compound = "O=C(Nc1nc2ccc(NC(=O)[C@@H]3CCC[C@H](NCc4ccc5ncccc5c4)C3)cc2s1)C1CCCC1 (relative stereo)"
assay_system = "Nakaseomyces glabratus"
endpoint = "MIC80"
result = "0.125 µg/mL"

[[record]]
compound = "O=C(Nc1nc2ccc(NC(=O)[C@@H]3CCC[C@H](NCc4ccc5ccccc5c4)C3)cc2o1)C1CCCC1 (relative stereo)"
assay_system = "Nakaseomyces glabratus"
endpoint = "MIC80"
result = "> 64 µg/mL"


What the record says about O=C(Nc1nc2ccc(NC(=O)[C@@H]3CCC[C@H](NCc4ccc5ccccc5n4)C3)cc2s1)C1CCCC1 (relative stereo) : MIC80 is > 64 µg/mL

* * *

For each record, write down the corresponding MIC80.
System: Nannizzia gypsea
Experiment Summary: Antifungal activity against Microsporum gypseum after 72 hrs by serial dilution method
Type: functional

Illustrative cases are given below, each with its answer.
[[record]]
compound = "COc1ccc2cc(CN[C@H]3CCC[C@@H](C(=O)Nc4ccc5nc(NC(=O)C6CCCC6)sc5c4)C3)ccc2c1 (relative stereo)"
result = "> 64 µg/mL"

[[record]]
compound = "O=C(Nc1nc2ccc(NC(=O)[C@@H]3CCC[C@H](NCc4cnc5ccccc5c4)C3)cc2s1)C1CCCC1"
result = "> 64 µg/mL"

[[record]]
compound = "COc1ccc(CN[C@H]2CCC[C@@H](C(=O)Nc3ccc4nc(NC(=O)C5CCCC5)sc4c3)C2)c2ccccc12 (relative stereo)"
result = "> 64 µg/mL"

[[record]]
compound = "CCOc1ccc2ccccc2c1CN[C@H]1CCC[C@@H](C(=O)Nc2ccc3nc(NC(=O)C4CCCC4)sc3c2)C1 (relative stereo)"
result = "64 µg/mL"

[[record]]
compound = "O=C(Nc1nc2ccc(NC(=O)[C@@H]3CCC[C@H](NCc4ccnc5ccccc45)C3)cc2s1)C1CCCC1 (relative stereo)"
result = "16 µg/mL"


# per-item lookup of MIC80; items listed below
1. O=C(Nc1nc2ccc(NC(=O)[C@@H]3CCC[C@H](NCc4ccc5ccccc5n4)C3)cc2s1)C1CCCC1 (relative stereo)
2. O=C(Nc1nc2ccc(NC(=O)[C@@H]3CCC[C@H](NCC4CNc5ccccc5C4)C3)cc2s1)C1CCCC1 (relative stereo)
3. O=C(Nc1ccc2nc(NC(=O)[C@@H]3CCC[C@H](NCc4ccc5ccccc5c4)C3)sc2c1)C1CCCC1 (relative stereo)
4. OC(Cn1cncn1)(Cn1cncn1)c1ccc(F)cc1F
5. O=C(Nc1nc2ccc(NC(=O)[C@@H]3CCC[C@H](NCc4ccc5ccccc5c4Br)C3)cc2s1)C1CCCC1 (relative stereo)
6. O=C(Nc1ccc2nc(NC(=O)[C@@H]3CCC[C@H](NCc4ccc5ncccc5c4)C3)sc2c1)C1CCCC1 (relative stereo)

Result:
["> 64 µg/mL", "64 µg/mL", "32 µg/mL", "32 µg/mL", "64 µg/mL", "32 µg/mL"]
